- targetUnderTest: GFP-RBP(L19A); ribose binding protein (RBP) (Escherichia coli, UniProt P02925, L44A/T160A/Q260A)
- Sequence (P02925 26-296 L44A/T160A/Q260A): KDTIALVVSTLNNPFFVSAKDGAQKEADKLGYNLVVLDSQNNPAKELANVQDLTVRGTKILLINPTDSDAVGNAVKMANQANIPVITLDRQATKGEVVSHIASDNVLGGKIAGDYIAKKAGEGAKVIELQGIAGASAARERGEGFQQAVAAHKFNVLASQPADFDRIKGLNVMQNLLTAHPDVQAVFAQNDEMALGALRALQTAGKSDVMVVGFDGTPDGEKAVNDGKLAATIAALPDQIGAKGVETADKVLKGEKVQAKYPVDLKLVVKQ
- test: isothermal titration calorimetry
- particulars: PBS, 298 K, 30 μM protein; GFP fusion
measuredAttribute: Kd (µM)
# value in µM; strip the unit string

Challenge: I'd like to know its Kd. The molecule in question is OC1OC[C@@H](O)[C@@H](O)[C@H]1O (stereo partly shown) [ribose]
Response given: 130

###

- targetUnderTest: GFP-RBP(L19A); ribose binding protein (RBP) (Escherichia coli, UniProt P02925, L44A/Q260A)
- Sequence (P02925 26-296 L44A/Q260A): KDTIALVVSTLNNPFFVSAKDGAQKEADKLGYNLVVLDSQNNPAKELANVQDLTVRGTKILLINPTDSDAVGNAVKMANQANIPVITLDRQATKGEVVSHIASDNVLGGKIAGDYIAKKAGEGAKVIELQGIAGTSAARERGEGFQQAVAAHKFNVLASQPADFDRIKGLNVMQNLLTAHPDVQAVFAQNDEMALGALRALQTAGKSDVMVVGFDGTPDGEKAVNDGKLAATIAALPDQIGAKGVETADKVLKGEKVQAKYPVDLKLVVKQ
- test: isothermal titration calorimetry
- particulars: PBS, 298 K, 30 μM protein; GFP fusion
measuredAttribute: pKd
Here pKd is given on a logarithmic scale as minus log10 of the concentration in mol/L.

Challenge: I'd like to know its pKd. The compound in question is OC1OC[C@@H](O)[C@@H](O)[C@H]1O (stereo partly shown)
Response given: 5.00
